Target: alpha-glucosidase (Oryza sativa, rice)
Assay: Counterscreen for Glucocerebrosidase Inhibitors: qHTS Assay for Rice alpha-Glucosidase at pH 5.0 (AID 997);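 also: 0% = full activity with enzyme and -100% = basal without enzyme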
Settings: rice alpha-glucosidase enzyme activity; series mostly up to 76.9 µM
Active and inactive are the calls of the source. Calls follow the shape of the dose curve; as a rule, active = well fitted curve in the direction sought with a large enough effect; inconclusive = small, poorly fitted or top-dose-only effect, or another doubt; inactive = no such curve, though single readings can be large or run the other way.
QUANTITY KIND: outcome

- COMPOUND: "COc1ccc2[nH]cc(CCN(C)C)c2c1"
  READING: "inactive"
- COMPOUND: "CNc1ccc2oc(C[C@H]3O[C@]4(CC[C@H]3C)O[C@H]([C@H](C)C(=O)c3ccc[nH]3)[C@H](C)C[C@H]4C)nc2c1C(=O)O"
  READING: "inactive"
- COMPOUND: "COc1cc(CCN)ccc1O"
  READING: "inactive"
- COMPOUND: "Cc1o[nH]c(=O)c1C[C@H](N)C(=O)O"
  READING: "inactive"
- COMPOUND: "C[C@H](N)Cc1c[nH]c2ccc(O)cc12"
  READING: "inactive"
- COMPOUND: "CN1CCN(c2ccc3ccccc3n2)CC1"
  READING: "inactive"
- COMPOUND: "N[C@H](CCP(=O)(O)O)C(=O)O"
  READING: "inactive"
- COMPOUND: "C/C(O)=C(/C#N)C(=O)Nc1cc(Br)ccc1Br"
  READING: "inactive"
- COMPOUND: "COC(=O)N1CCN(C(=O)Cc2ccc(Cl)c(Cl)c2)[C@H](CN2CCCC2)C1"
  READING: "inactive"
- COMPOUND: "C=CCN1CCC2(C)c3cc(O)ccc3C[C@H]1[C@H]2C"
  READING: "inactive"
- COMPOUND: "CN1C(=O)CCS(=O)(=O)[C@H]1c1ccc(Cl)cc1"
  READING: "inactive"
- COMPOUND: "C[C@H](N)Cc1cnc[nH]1"
  READING: "inactive"
- COMPOUND: "N[C@H](CCCCCP(=O)(O)O)C(=O)O"
  READING: "inactive"
- COMPOUND: "c1ccc2c(c1)OC[C@@H](C1=NCCN1)O2"
  READING: "inactive"
- COMPOUND: "CP(=O)(O)CCCN"
  READING: "inactive"

====

System: C33A
Assay: Primary qHTS to identify gynecologic anti-cancer compounds using libraries of approved drugs and bioactive compounds (AID 1345084); also: nearly all actives have a fitted effect of over 55% in size
Conditions: Gynecologic cancer cell panel viability, ATPlite luminescence, 48 h; series mostly up to 57.5 µM
Inconclusive results are not listed. Active and inactive are the calls of the source. Calls follow the shape of the dose curve; as a rule, active = well fitted cell-killing curve with a large enough effect; inconclusive = small, poorly fitted or top-dose-only effect, or effect the other way; inactive = flat fitted curve, though single readings scatter.
Labels: true (1) for active, false (0) for inactive

- COMPOUND: "COc1ccc(C23CCC(=O)C=C2N(C)CC3)cc1OC (centres undefined)"
  LABEL CLASS: "false (0)"
- COMPOUND: "CCC1(O)CCC2C3CCC4=CC(=O)CCC4C3CCC21CC (centres undefined)"
  LABEL CLASS: "false (0)"
- COMPOUND: "C[C@@H](CN1CCC(n2c(=O)[nH]c3cc(Br)ccc32)CC1)NC(=O)[C@@H]1C[C@H]1c1ccccc1"
  LABEL CLASS: "false (0)"
- COMPOUND: "CN1C(=O)[C@]23CC4C(C)(C)[C@@]5(C[C@@]41CN2CC[C@@]3(C)O)C(=O)Nc1c5ccc2c1OC=CC(C)(C)O2 (some centres undefined)"
  LABEL CLASS: "false (0)"
- COMPOUND: "CC(=O)O[C@H]1C[C@@H](C)O[C@H]2O[C@@H]3CC4CC[C@@H]5C(CC[C@]6(C)[C@@H](C7=CC(=O)OC7)CC[C@]56O)[C@@]4(C=O)C[C@H]3O[C@]21O (some centres undefined)"
  LABEL CLASS: "true (1)"
- COMPOUND: "CCCCCn1cc(C(=O)Oc2cccc3cccnc23)c2ccccc21"
  LABEL CLASS: "false (0)"
- COMPOUND: "COC(=O)C12C(=O)C(C)(O)C(=O)C1(C)C(C)=CC1C3(C=O)CCC(OC(C)=O)C(C)(C)C3CCC12C (centres undefined)"
  LABEL CLASS: "false (0)"
- COMPOUND: "COC(=O)CC1CC2(C(=O)c3c(O)cccc3C2(O)C(=O)OC)C(C)O1 (centres undefined)"
  LABEL CLASS: "false (0)"
- COMPOUND: "CCOC(=O)Nc1ccc(NCc2c(C)cc(C)cc2C)cc1N"
  LABEL CLASS: "false (0)"
- COMPOUND: "COC1C=CC23c4cc5c(cc4COC2(O)CN(C)C3C1)OCO5 (centres undefined)"
  LABEL CLASS: "false (0)"
- COMPOUND: "CCOC(=O)C1(CCc2ccccc2)CCN(Cc2ccc(NC(C)=O)cc2)CC1"
  LABEL CLASS: "false (0)"
- COMPOUND: "C[C@H](Nc1ncnc2nc[nH]c12)c1nc2ccc(F)cc2c(=O)n1-c1ccccc1"
  LABEL CLASS: "false (0)"
- COMPOUND: "CC(C)[C@H](NC(=O)c1nn(Cc2ccc(F)cc2)c2ccccc12)C(N)=O"
  LABEL CLASS: "false (0)"
- COMPOUND: "Clc1ccc([C@]23CNC[C@H]2C3)cc1Cl"
  LABEL CLASS: "false (0)"
- COMPOUND: "CCOP(=O)(OCC)Oc1ccc2c(C)cc(=O)oc2c1"
  LABEL CLASS: "false (0)"
- COMPOUND: "CN1C(=O)N(c2ccc(C#N)c(C(F)(F)F)c2)C(=O)[C@@]1(CO)c1ccccc1"
  LABEL CLASS: "false (0)"
- COMPOUND: "COC1CC(O[C@H]2CC[C@@]3(C)C(CCC4C3CC[C@]3(C)C(C5=CC(=O)OC5)CCC43O)C2)OC(C)C1OC1OC(COC2OC(CO)C(O)C(O)C2O)C(O)C(O)C1O (some centres undefined)"
  LABEL CLASS: "true (1)"
- COMPOUND: "CCC(C)C1NC(=O)C(C(C)=O)=C1O (centres undefined)"
  LABEL CLASS: "false (0)"
- COMPOUND: "C[C@@H](CN1CCC2(CC1)C(=O)NCN2c1cccc(F)c1)NC(=O)c1ccc(Br)cc1"
  LABEL CLASS: "false (0)"

====

Experiment: qHTS for Inhibitors of the Functional Ribonucleoprotein Complex (vRNP) of Lassa (LASV) Arenavirus: Viability assay - alamar blue signal for LASV Primary Screen (AID 1347083); also: nearly all actives have a fitted effect of over 80% in size
Settings: cell viability, alamar blue fluorescence (LASV minigenome counter-screen); series mostly up to 57.5 µM
Inconclusive results are not listed. Activity calls are given as the source filed them. Calls come from the whole dose curve; tested in HEK293 reporter line.
Labels: y for active, n for inactive

- MOLECULE: "CC(C)NCC(O)COc1cccc2ccccc12 (centres undefined)"
  LABEL CLASS: "n"
- MOLECULE: "Clc1nccc2c1ccc1ccccc12"
  LABEL CLASS: "n"
- MOLECULE: "O=C(c1ccc2c(c1)OCCO2)N1CCCCC1"
  LABEL CLASS: "n"
- MOLECULE: "CNC(=O)c1nn(C)c2c1C(C)(C)Cc1cnc(Nc3ccc(N4CCN(C)CC4)cc3)nc1-2"
  LABEL CLASS: "y"
- MOLECULE: "CC(C)C1=CC2=CC[C@@H]3[C@](C)(CCC[C@@]3(C)C(=O)O)[C@H]2CC1"
  LABEL CLASS: "n"
- MOLECULE: "CN(C1CCc2c(c3ccccc3n2CC(=O)O)C1)S(=O)(=O)c1ccc(F)cc1 (centres undefined)"
  LABEL CLASS: "n"
- MOLECULE: "CCC(=O)OCCc1ccccc1"
  LABEL CLASS: "n"
- MOLECULE: "CC(=O)CCc1ccc(O)cc1"
  LABEL CLASS: "n"
- MOLECULE: "C=C1CC/C=C(\\C)CC[C@@H]2[C@@H]1CC2(C)C"
  LABEL CLASS: "n"
- MOLECULE: "C=C[C@]1(C)C=C2C(=O)[C@@]3(O)OC(=O)[C@@]4(CCCC(C)(C)[C@H]34)[C@@]2(O)CC1"
  LABEL CLASS: "n"
- MOLECULE: "Oc1cc(-c2nc(-c3ccccc3)[nH]c2-c2ccncc2)ccc1Cl"
  LABEL CLASS: "y"
- MOLECULE: "COc1cc2c(cc1OC)-c1cc3ccc4c(c3c[n+]1CC2)OCO4"
  LABEL CLASS: "n"
- MOLECULE: "COc1ccc(-c2oc3ccccc3c(=O)c2O)cc1"
  LABEL CLASS: "n"
- MOLECULE: "COc1cc2ncnc(Nc3cccc(Br)c3)c2cc1OC"
  LABEL CLASS: "y"
- MOLECULE: "NC(=O)N1CCC(CC(=O)N2CCC([C@H]3c4ncc(Br)cc4CCc4cc(Cl)cc(Br)c43)CC2)CC1"
  LABEL CLASS: "n"
- MOLECULE: "N=c1ccn2c(n1)O[C@H]1[C@H](O)[C@@H](CO)O[C@H]12"
  LABEL CLASS: "n"
- MOLECULE: "CCC(=O)NC[C@H](Cc1ccc(OCCc2nc(-c3ccccc3)oc2C)cc1)NC(C)=CC(=O)c1ccc(C(F)(F)F)cc1"
  LABEL CLASS: "n"
- MOLECULE: "O=C1O[C@@H](c2ccc(O)cc2)Cc2cccc(O)c21"
  LABEL CLASS: "n"
- MOLECULE: "CN(C)CCN1C(=O)c2cccc3cc(N)cc(c23)C1=O"
  LABEL CLASS: "y"
- MOLECULE: "NC1(Cc2ccc(Cl)cc2)CCN(c2ncnc3[nH]ccc23)CC1"
  LABEL CLASS: "y"
- MOLECULE: "COc1cc(/C=C(\\C#N)C(=O)c2ccc(O)c(O)c2)cc(I)c1O"
  LABEL CLASS: "n"
- MOLECULE: "COC1=C(OC)C(=O)C(CC=C(C)CCC=C(C)CCC=C(C)CCC=C(C)CCC=C(C)CCC=C(C)CCC=C(C)CCC=C(C)CCC=C(C)CCC=C(C)C)=C(C)C1=O"
  LABEL CLASS: "n"
- MOLECULE: "COc1ccc2c(OCc3nnc4ccc(-c5ccccc5)nn34)ccnc2c1"
  LABEL CLASS: "n"
- MOLECULE: "COc1ccccc1N1CCN(CCN(C(=O)c2ccc(F)cc2)c2ccccn2)CC1"
  LABEL CLASS: "n"
- MOLECULE: "CC1(C)CCC2=C(O1)c1ccccc1C(=O)C2=O"
  LABEL CLASS: "n"
- MOLECULE: "CCc1c(O)cc(O)c(C(=O)c2ccc(OCCN3CCOCC3)c(OC)c2)c1CC(=O)N(CCOC)CCOC"
  LABEL CLASS: "y"
- MOLECULE: "CC(O)CC(=O)O (centres undefined)"
  LABEL CLASS: "n"
- MOLECULE: "Cn1cc(CNCC2CCN(c3ncc(C(=O)NO)cn3)CC2)c2ccccc21"
  LABEL CLASS: "y"
- MOLECULE: "CCC(C)C(=O)OCCc1ccccc1 (centres undefined)"
  LABEL CLASS: "n"
- MOLECULE: "C=C1[C@@H]2C[C@]3(C(CC2=O)[C@]24C5C[C@H]3[C@H]2N(CC)C[C@]5(C)CC[C@@H]4O)[C@@H]1O (some centres undefined)"
  LABEL CLASS: "n"
- MOLECULE: "Cc1ccc(CN2CCNCC2)cc1NC(=O)CNc1ccc(F)c(F)c1"
  LABEL CLASS: "n"
- MOLECULE: "Nc1ncnc2c1ncn2C1CCCC1"
  LABEL CLASS: "n"
- MOLECULE: "C[C@H]1COC2=C1C(=O)C(=O)c1c2ccc2c1CCCC2(C)C"
  LABEL CLASS: "n"
- MOLECULE: "Cc1cc(O)c2c(c1)O[C@@]1(C)CC[C@H]3C(C)(C)CCCC34CO[C@@H]2[C@H]41 (some centres undefined)"
  LABEL CLASS: "n"
- MOLECULE: "CC(=O)O[C@H]1Cc2ccccc2N(C(N)=O)c2ccccc21"
  LABEL CLASS: "n"
- MOLECULE: "COC(C)(C)[C@@H](O)COc1c2ccoc2cc2oc(=O)ccc12"
  LABEL CLASS: "n"
- MOLECULE: "CC(C)Nc1cc(C(F)(F)F)cc2nc(NC(=O)c3cccnc3)nn12"
  LABEL CLASS: "n"
- MOLECULE: "COC(=O)C1=CO[C@@H](C)[C@@H]2CN3CCc4c([nH]c5ccccc45)[C@@H]3C[C@H]12"
  LABEL CLASS: "n"
- MOLECULE: "O=C1CCCCCCCCCCCCCCCO1"
  LABEL CLASS: "n"
- MOLECULE: "CC(C)c1cnn2c(NCc3ccccc3)cc(N[C@@H](CO)[C@H](O)CO)nc12"
  LABEL CLASS: "y"
- MOLECULE: "COc1cc2nc3occc3c(OC)c2cc1OC"
  LABEL CLASS: "n"
- MOLECULE: "NC(=O)c1ncn([C@@H]2O[C@H](CO)[C@@H](O)[C@H]2O)n1"
  LABEL CLASS: "n"
- MOLECULE: "COc1n[nH]c2nncnc12"
  LABEL CLASS: "n"
- MOLECULE: "CC(C)c1noc(N2CCC(COc3ccc(-c4ccc(S(C)(=O)=O)cc4)nc3)CC2)n1"
  LABEL CLASS: "n"

Recorded values, source PubChem BioAssay (NCATS).
